Recorded values, source PubChem BioAssay.

- assay-notes: inhibitors of poly I:C-induced TLR3 signaling, primary screen, cell-based, poly I:C stimulus, luciferase, 10K MLSCN set (AID 602277)
- test-context: HEK293-TLR3 RL24 IRF3 luciferase reporter, at 10 µM, stronger effect = higher value
quantity: inhibition (%)
Give your result in % as a bare value.

Below, 5 compounds whose answers are already recorded.
Cc1ccc(N2CCN(c3ccc(C)cc3)C(CC(=O)O)C2=O)cc1 (stereo not drawn) ... 4.47
CC(C)CNC(=O)C1CC(=O)OC12CCCCC2 (stereo not drawn) ... 19.6
CCc1ccc2[nH]c(=O)c(C(c3nnnn3CC3CCCO3)N3CCCc4ccccc43)cc2c1 (stereo not drawn) ... 32.6
O=C(c1cnccn1)N(c1ccccc1)C1(C(=O)NC2CCCC2)CCCCC1 ... 16.5
CCOC(=O)N1CCC(c2cc(=O)n3[nH]c(C)c(-c4ccc(F)cc4)c3n2)CC1 ... 31

Please find the next compound below.
(Q) So what does the record say about inhibition for CCOc1ccc(C(=O)OCc2nnc(-c3cccs3)o2)cc1OC ?
(A) 27.5

###

- assay-notes: inhibitors of E-selectin induction by TNFa, primary screen, imaging, HUVEC, immunofluorescence, MLSMR starter and 10KST1 sets (AID 487);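 on nuclei count: 100% = median nuclei count of all wells on the same plate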
- test-context: HUVEC TNFalpha-induced E-selectin immunofluorescence imaging, at 2 µM; measured here: cell number, toxicity
quantity: nuclei count (%)
Give your result in % as a bare value.

COC(=O)Nc1sc2c(c1C(=O)N1CCOCC1)CCC(C)C2 (stereo unspecified) ... 75.2
CCCn1c(O)c(CN2CCCC(C)C2)c(C)c(C#N)c1=O (stereo unspecified) ... 113
CCOC(=O)N1CCN(C(c2ccc(Cl)cc2)c2sc3nc(C)nn3c2O)CC1 (stereo unspecified) ... 106
Cc1c(C#N)sc2nc(-c3ccccc3)nc(N3CCCC3)c12 ... 130
CC(=O)c1cc(F)c(N2CCN(C(=O)Cc3ccccc3)CC2)cc1C ... 110

Please find the next molecule below.
(Q) So what does the record say about nuclei count for COc1cc(OC)c(C2N(C)c3ccccc3N2C)cc1OC ?
(A) 105

###

# key: entry, value: inhibition
- assay-notes: inhibitors of E-selectin induction by TNFa, primary screen, imaging, HUVEC, immunofluorescence, MLSMR starter and 10KST1 sets (AID 487);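 on inhibition: signal is fraction of cell area covered by stained E-selectin grains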
- test-context: HUVEC TNFalpha-induced E-selectin immunofluorescence imaging, at 2 µM; stronger effect = higher value
Give your result in % as a bare value.

Below, 5 compounds whose answers are already recorded.
CCOC(=O)CN1CC23C=CC(O2)C(C(=O)Nc2ccc(OCC)cc2)C3C1=O (stereo unspecified) ... -5.7
Cc1ccc(S(=O)(=O)NC(C)C(=O)Nc2ccc(C(N)=O)cc2)cc1 (stereo unspecified) ... -22.5
CC1C=CC(C)C(C(=O)O)C1C(=O)O (stereo unspecified) ... -15.8
Cc1ccc(S(=O)(=O)NC(=O)Nc2ncc3c(n2)CC(c2ccco2)CC3=O)cc1 (stereo unspecified) ... 45.8
CCOC(=O)c1ccc(N2C(=O)CC(NC3CCN(C(=O)c4ccc(F)cc4)CC3)C2=O)cc1 (stereo unspecified) ... -30.3

(Q) So what does the record say about inhibition for CCN(CC)CCCN1C(=O)C(O)=C(C(C)=O)C1c1cccc(OC)c1 (stereo unspecified) ?
(A) -142

(Q) So what does the record say about inhibition for O=C(c1ccc2c(c1)OCO2)N1CCCN(C(=O)c2ccc3c(c2)OCO3)CC1 ?
(A) -123

(Q) So what does the record say about inhibition for Cc1cc2ccccc2cc(C)c1=O ?
(A) -120

(Q) So what does the record say about inhibition for OC(COc1ccc2ccccc2c1)CN1CCOCC1 (stereo unspecified) ?
(A) -44.7

(Q) So what does the record say about inhibition for CCC(c1nnnn1C(C)(C)C)N1CCN(C2CCCC2)CC1 (stereo unspecified) ?
(A) -46.6

(Q) So what does the record say about inhibition for C(=N\c1c(-c2ccccc2)nc2n1CCS2)/c1ccccc1 ?
(A) 18.8
